molecular target: human TAS1R2-WT/TAS1R3-G832R (Homo sapiens, UniProt Q7RTX0+Q8TE23, G832R); construct: expressed in transfected cells; host or cells: HEK293T stably expressing Gα16gust44; assay: Calcium mobilisation assay, TAS1R2-WT with TAS1R3 variant G832R; assay type: cell-based; settings: read-out: EC50
Sequence (Q8TE23 20-839): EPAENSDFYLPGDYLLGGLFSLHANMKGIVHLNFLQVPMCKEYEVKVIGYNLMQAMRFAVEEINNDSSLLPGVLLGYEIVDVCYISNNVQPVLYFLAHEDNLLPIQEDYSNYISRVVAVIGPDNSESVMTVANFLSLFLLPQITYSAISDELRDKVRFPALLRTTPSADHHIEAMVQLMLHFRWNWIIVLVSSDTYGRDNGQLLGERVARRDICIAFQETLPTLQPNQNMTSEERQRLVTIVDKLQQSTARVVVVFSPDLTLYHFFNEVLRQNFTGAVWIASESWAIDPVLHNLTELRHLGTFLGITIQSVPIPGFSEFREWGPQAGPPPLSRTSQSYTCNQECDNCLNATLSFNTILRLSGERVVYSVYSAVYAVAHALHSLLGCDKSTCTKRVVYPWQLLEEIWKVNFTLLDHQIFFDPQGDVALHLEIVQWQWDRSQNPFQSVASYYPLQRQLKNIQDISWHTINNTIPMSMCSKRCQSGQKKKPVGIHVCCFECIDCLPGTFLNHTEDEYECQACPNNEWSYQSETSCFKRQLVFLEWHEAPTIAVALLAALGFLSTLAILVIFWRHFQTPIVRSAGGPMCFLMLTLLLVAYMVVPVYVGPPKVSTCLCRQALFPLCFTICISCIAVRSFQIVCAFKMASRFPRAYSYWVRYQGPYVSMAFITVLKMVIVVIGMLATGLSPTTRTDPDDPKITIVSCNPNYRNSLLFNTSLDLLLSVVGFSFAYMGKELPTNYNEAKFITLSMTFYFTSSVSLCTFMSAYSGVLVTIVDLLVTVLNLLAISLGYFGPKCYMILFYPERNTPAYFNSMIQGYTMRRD
Sequence (Q7RTX0 21-852 G832R): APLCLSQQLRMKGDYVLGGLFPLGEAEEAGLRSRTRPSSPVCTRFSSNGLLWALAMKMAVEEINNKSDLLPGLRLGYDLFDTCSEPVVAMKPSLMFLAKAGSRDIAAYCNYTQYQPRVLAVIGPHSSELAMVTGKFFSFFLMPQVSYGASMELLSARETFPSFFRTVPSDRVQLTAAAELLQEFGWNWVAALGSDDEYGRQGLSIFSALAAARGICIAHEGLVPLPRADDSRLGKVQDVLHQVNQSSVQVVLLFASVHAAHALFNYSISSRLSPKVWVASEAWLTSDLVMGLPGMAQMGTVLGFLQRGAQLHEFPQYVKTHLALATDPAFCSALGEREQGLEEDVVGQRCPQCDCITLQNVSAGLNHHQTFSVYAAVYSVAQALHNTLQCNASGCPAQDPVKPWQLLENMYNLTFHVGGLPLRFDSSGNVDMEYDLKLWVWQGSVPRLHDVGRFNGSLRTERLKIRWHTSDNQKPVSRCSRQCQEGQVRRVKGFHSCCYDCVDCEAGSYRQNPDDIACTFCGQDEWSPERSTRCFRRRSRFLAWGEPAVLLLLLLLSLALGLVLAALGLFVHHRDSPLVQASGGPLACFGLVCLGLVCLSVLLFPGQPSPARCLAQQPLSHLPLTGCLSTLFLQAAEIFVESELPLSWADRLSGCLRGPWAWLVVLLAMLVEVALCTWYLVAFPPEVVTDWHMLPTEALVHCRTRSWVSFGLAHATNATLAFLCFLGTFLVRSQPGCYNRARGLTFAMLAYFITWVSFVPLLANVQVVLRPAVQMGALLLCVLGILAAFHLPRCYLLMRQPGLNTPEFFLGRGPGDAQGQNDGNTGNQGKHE
measuredMetric: EC50 (µM)

Look up EC50 for this compound: O=S(=O)(O)NC1CCCCC1 [Cyclamate, cyclamate]
998

Note, next up: CC1=CC(=O)NS(=O)(=O)O1
468

I. COc1ccc(CCC(=O)c2c(O)cc(O[C@@H]3O[C@H](CO)[C@@H](O)[C@H](O)[C@H]3O[C@@H]3O[C@@H](C)[C@H](O)[C@@H](O)[C@H]3O)cc2O)cc1O [NHDC, neohesperidin dihydrochalcone]
II. COC(=O)[C@H](Cc1ccccc1)NC(=O)[C@H](CC(=O)O)NCCC(C)(C)C
Would you let me know which has the greater EC50 value, I or II ? Refer to your chosen item by its label in the answer.
I
(I: 28.1 µM, II: 0.8 µM)

All figures here come from paper PMC11945486.
